- STUDY SYSTEM: SARS-CoV-2 RBD (receptor-binding domain of S, residues 331-524) (SARS-CoV-2, UniProt P0DTC2)
- ASSAY DETAILS: SPR
READOUT NAME: binding result

INSERT INTO measurements (binder, observed_value) VALUES
  ('C119 IgG (antibody, V domains shown) VH: QVQLVQSGAEVKKPGASVKVSCKASGYTFTSYYMHWVRQAPGQGLEWMGIINPSGGSTSYAQKLQGRVTMTRDTSTSTVYMELSSLRSEDTAVYYCARANHETTMDTYYYYYYMDVWGKGTTVTVSS VL: QSALTQPASVSGSPGQSITISCTGTSSDVGGYKYVSWYQRHPGKAPKLMIYDVSNRPSGVSNRFSGSKSGNTASLTISGLQAEDEADYYCSSYTSSSTSVVFGGGTQLTVL', 'binds');
